- assay_system: T1, EsCas13d, nuclease-dead (Eubacterium siraeum, UniProt B0MS50, R295A;H300A;R849A;H854A)
- T1 sequence: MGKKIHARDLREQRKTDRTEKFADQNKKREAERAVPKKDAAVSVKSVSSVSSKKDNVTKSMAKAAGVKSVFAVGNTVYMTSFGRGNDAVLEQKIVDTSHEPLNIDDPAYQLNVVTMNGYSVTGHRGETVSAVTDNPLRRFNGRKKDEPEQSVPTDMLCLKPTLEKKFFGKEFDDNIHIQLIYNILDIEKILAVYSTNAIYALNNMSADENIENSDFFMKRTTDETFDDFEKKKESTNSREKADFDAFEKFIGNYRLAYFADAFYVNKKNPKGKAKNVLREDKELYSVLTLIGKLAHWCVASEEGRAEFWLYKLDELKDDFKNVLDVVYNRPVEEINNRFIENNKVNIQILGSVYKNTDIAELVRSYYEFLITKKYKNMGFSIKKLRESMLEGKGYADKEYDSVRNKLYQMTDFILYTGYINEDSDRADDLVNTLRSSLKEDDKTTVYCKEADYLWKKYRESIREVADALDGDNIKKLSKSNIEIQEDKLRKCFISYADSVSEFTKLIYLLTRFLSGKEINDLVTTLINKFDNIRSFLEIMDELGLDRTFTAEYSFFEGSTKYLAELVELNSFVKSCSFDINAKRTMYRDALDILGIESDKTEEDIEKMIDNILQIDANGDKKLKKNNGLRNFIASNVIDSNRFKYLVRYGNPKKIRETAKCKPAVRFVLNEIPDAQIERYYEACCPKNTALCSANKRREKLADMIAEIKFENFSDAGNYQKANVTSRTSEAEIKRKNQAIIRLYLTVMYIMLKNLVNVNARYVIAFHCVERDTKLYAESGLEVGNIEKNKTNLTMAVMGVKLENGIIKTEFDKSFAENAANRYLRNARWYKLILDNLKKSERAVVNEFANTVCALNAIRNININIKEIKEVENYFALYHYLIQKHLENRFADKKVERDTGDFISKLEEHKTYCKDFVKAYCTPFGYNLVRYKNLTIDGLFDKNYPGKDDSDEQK
- assay_overview: crRNA (strand 1, pre-loaded); Mg2+; 40 mM Tris-HCl pH 7.5, 150 mM NaCl, 6 mM MgCl2, 1 mM DTT, 0.1% Tween-20, 0.2 mg/ml BSA; 25 C; 10 min per concentration, then washed
- cond: tags: His6-TwinStrep-SUMO cleaved; N-terminal SNAP kept (SNAP-Surface 488); label: 3' end held by stalled T7 RNA polymerase
endpoint_label: pKd
One number for each entry, as −log10 of the molar value.

[
  {
    "binder": "target 3 C1A,A5C (mixed) RNA 1: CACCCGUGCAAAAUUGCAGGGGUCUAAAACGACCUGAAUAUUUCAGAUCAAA RNA 2: GGGAAUGGAUCCACAUCUACGAAUUCGUUUUUGAUCUGAAAUAUUCCGGUAUGCAGAUCGGAAGAGCACACGU",
    "data_value": 7.23
  }
]

Dear reader, for each entry below, please note its pKd.
1. target 1 G12U,A20U (mixed) RNA 1: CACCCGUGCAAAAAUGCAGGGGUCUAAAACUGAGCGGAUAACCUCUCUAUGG RNA 2: GGGAAUGGAUCCACAUCUACGAAUUCGUACCUUAGAGAGUUUAUCCGCUCACCGAGAUCGGAAGAGCACACGU
2. target 1 insC 3' of 17,insU 3' of 4 (mixed) RNA 1: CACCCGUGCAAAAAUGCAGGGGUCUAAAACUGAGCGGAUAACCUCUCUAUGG RNA 2: GGGAAUGGAUCCACAUCUACGAAUUCGUACCAUAGCAGAGGUUAUCCGCUUCACCGAGAUCGGAAGAGCACACGU

7.56
7.34
